Would you mind telling me the reported cell viability of each entry?
System: P12-Ichikawa
Test: cell viability relative to DMSO control; higher = less cytotoxic
Conditions: HPLM + 10% dialyzed FBS; 48 h; 5.12 µM
Give bare numbers, in %.

Batch lookup, cell viability per entry.
1. OCc1ccc(-c2ccc(-c3ccc(CO)s3)o2)s1
2. NC(=O)NO

Return:
98
72.4

Working through the 2 compounds below one at a time, give cell viability for each.
1. COc1ccc2cc1Oc1ccc(cc1)C[C@H]1c3cc(c(OC)cc3CCN1C)Oc1c(OC)c(OC)cc3c1[C@H](C2)N(C)CC3
2. Nc1ncnc2c1c(-c1cccc(OCc3ccccc3)c1)cn2C1CC(CN2CCCC2)C1 (centres undefined)

Return:
[96.8, 134]

* * *

System: NOMO1
Assay: cell viability relative to DMSO control; higher = less cytotoxic
Settings: RPMI 5 mM glucose + 10% FBS; 48 h; 0.00234 µM
quantity: cell viability (%)
One number for each entry, in %.

Consider the reported cell viability for these compounds:
{"compound": "CC(C)Cc1ccc(C(C)C(=O)O)cc1 (configuration not stated)", "cell viability / %": 93.9}
{"compound": "COc1cccc2c1CCCC2CCCN1CCN(C2CCCCC2)CC1 (configuration not stated)", "cell viability / %": 107}
{"compound": "COc1cccc2c1[C@]13CCN(CC4CC4)[C@H](C2)[C@]1(OC)CCC(=O)C3", "cell viability / %": 111}
{"compound": "Nc1nc(Cl)nc2c1ncn2[C@@H]1O[C@H](CO)[C@@H](O)[C@@H]1F", "cell viability / %": 131}
{"compound": "Cc1cccc(/C=N/Nc2cc(N3CCOCC3)nc(OCCc3ccccn3)n2)c1", "cell viability / %": 107}

Give one value of cell viability per listed compound.
1. C#CCN[C@@H]1CCc2ccccc21.CS(=O)(=O)O
2. O.O.CCN1CCN(C(=O)N[C@H](C(=O)N[C@H]2[C@@H]3SC\C(=C(/N3C2=O)C(O)=O)CSC4=NN=N[N]4C)C5=CC=C(O)C=C5)C(=O)C1=O

Return:
97
93.8

* * *

What AUC of viability dose-response curve was measured for each of the following?
Tested on: SEM cells
Assay: AUC of viability dose-response curve (% viability x log10 dose units); higher = less sensitive
Conditions: HPLM + 10% dialyzed FBS; 48 h
Answers are plain numbers.

{"molecule": "C[S+](=O)([O-])CCNCc1ccc(-c2ccc3ncnc(Nc4ccc(OCc5cccc(F)c5)c(Cl)c4)c3c2)o1", "target of assay": "SEM cells", "observed": 442}
{"molecule": "Cn1cc(C[C@@H](N)C(=O)O)c2ccccc21", "target of assay": "SEM cells", "observed": 461}
{"molecule": "CCOc1ccc(Cc2cc([C@@H]3O[C@H](CO)[C@@H](O)[C@H](O)[C@H]3O)ccc2Cl)cc1", "target of assay": "SEM cells", "observed": 465}
{"molecule": "Nc1nc(Cl)nc2c1ncn2[C@@H]1O[C@H](CO)[C@@H](O)[C@@H]1F", "target of assay": "SEM cells", "observed": 68}
{"molecule": "COc1cccc2c1CCCC2CCCN1CCN(C2CCCCC2)CC1 (centres undefined)", "target of assay": "SEM cells", "observed": 427}

I have 7 molecules here; please give me AUC of viability dose-response curve for each one.
1. NC(=O)NO
2. O=c1oc2c(O)c(O)cc3c(=O)oc4c(O)c(O)cc1c4c23
3. CNC(=O)[C@H](CC/1=C/N=C\2/C=C\C\C=C12)NC(=O)[C@H](CC(C)C)CC(=O)NO
4. O=C1NC(=O)/C(=C/c2ccc(-c3ccc(F)cc3O)o2)S1
5. CNC(=O)N1\N=C(\C2=CC=C(N)C=C2)C3=CC4=C(OCO4)C=C3CC1C (centres undefined)
6. CC(C)Cc1ccc(C(C)C(=O)O)cc1 (centres undefined)
7. Cn1cc(-c2ccc(F)c(C(F)(F)F)c2)nc1C1CCN(c2ncnc3[nH]ncc23)CC1

Return:
326
471
471
445
413
371
441

Respectfully, I request AUC of viability dose-response curve for each entry included below.
1. COc1cc(/C=C/C(=O)O)ccc1O
2. CC(O)C1C2C(C)\C(=C(/N2C1=O)C(O)=O)SC3CNC(C3)C(=O)N(C)C (centres undefined)

Return:
[411, 395]
